Assay: physchem
Assay type: physicochemical
Below, each entry is listed with its recorded Kinetic solubility.
All answers are understood in µM, so give the number only.

Lab book: Kinetic solubility of CN(C(=O)CSc1nc2ccccc2c(=O)[nH]1)C1CCCCC1 noted as 250

Lab book: Kinetic solubility of CC(Sc1nc2ccccc2c(=O)[nH]1)C(=O)NC1CCCCC1 (stereo not shown) noted as 250

###

Molecular target: recombinant MBP-MtNdh (MTb NDH-2) (Mycobacterium tuberculosis, UniProt P95160)
Construct: The ORF corresponding to Rv1854c was codon optimized for E. coli
Sequence (P95160 whole entry): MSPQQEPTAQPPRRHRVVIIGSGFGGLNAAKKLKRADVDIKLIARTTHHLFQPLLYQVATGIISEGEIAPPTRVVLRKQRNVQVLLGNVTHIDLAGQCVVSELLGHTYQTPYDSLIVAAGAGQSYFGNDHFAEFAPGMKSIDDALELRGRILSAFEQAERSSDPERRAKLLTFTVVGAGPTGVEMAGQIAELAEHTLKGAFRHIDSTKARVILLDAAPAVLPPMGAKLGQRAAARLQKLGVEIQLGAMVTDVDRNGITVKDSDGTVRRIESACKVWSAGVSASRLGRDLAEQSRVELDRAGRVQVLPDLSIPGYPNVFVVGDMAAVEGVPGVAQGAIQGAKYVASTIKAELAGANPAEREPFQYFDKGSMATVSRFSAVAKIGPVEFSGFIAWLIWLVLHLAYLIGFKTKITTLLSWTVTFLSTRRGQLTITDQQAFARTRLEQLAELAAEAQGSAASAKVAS
Assay: Ndh activity assay (NADH oxidation at 340 nm)
Settings: varying Q2 or NADH, double reciprocal plots; read-out: Ki against MtNdh
pKi: −log10 of the molar value.
Recorded Metric: pKi

Lab book: pKi of O=C(CSc1nc2ccccc2c(=O)[nH]1)NC1CCCCC1 [Compound 1] noted as 7.40 to 7.52

###

Assay: physchem
Type: physicochemical
Conditions: water, kinetic from dmso stock, Kinetic solubility
Recorded Metric: solubility kinetic (µM)
All answers are understood in µM, so give the number only.

# Compound, solubility kinetic (µM)
records = [
    ("O=C(CSc1nc2c(c(=O)[nH]1)CCC2)NC1CCCCC1", 250),
]

Lab book: solubility kinetic of O=C(CSc1nc2ccccc2c(=O)[nH]1)NC1CCCC1 noted as 101

Lab book: solubility kinetic of Cc1nc(SCC(=O)NC2CCCCC2)nc(O)c1C noted as 250

Lab book: solubility kinetic of O=C(CSc1nc2cnccc2c(=O)[nH]1)NC1CCC(F)(F)CC1 noted as 250

Lab book: solubility kinetic of CC(Sc1nc2ccccc2c(=O)[nH]1)C(=O)N(C)C1CCCCC1 (centres unmarked) noted as 250

Lab book: solubility kinetic of O=C(CSc1nc2ccccc2c(=O)[nH]1)NCC1CCC(F)(F)CC1 noted as 250

Lab book: solubility kinetic of O=C(CSc1nc2ccccc2c(=O)[nH]1)NC1CCCCC1(F)F (centres unmarked) noted as 219

Lab book: solubility kinetic of O=C(CSc1nc2ccccc2c(=O)[nH]1)NC1CCC(F)(F)CC1 noted as 105

Lab book: solubility kinetic of O=C(CSc1nc2c(c(=O)[nH]1)CCCC2)NC1CCCCC1 noted as 250

Lab book: solubility kinetic of O=C(CSc1nc2ccccc2c(=O)[nH]1)NC1CCC1 noted as 219

Lab book: solubility kinetic of O=C(CSc1nc2ccccc2c(=O)[nH]1)NC1CCCC(F)(F)C1 (centres unmarked) noted as 187

Lab book: solubility kinetic of O=C(CSc1nc2ccccc2c(=O)[nH]1)NC1CCCCC1 noted as 83

Lab book: solubility kinetic of O=C(CSc1nc2ccc(F)cc2c(=O)[nH]1)NC1CCC(F)(F)CC1 noted as 55

Lab book: solubility kinetic of O=C(CCc1nc2ccccc2c(=O)[nH]1)NC1CCCCC1 noted as 250

Lab book: solubility kinetic of O=C(CSc1nc2ccccc2c(=O)[nH]1)NC1CCCCCC1 noted as 39

Lab book: solubility kinetic of O=C(CSc1nc2ccccc2c(=O)[nH]1)NCc1ccccc1 noted as 109

Lab book: solubility kinetic of O=C(CNc1nc2ccccc2c(=O)[nH]1)NC1CCCCC1 noted as 250
